Target: Vasoactive intestinal polypeptide receptor 1 (Homo sapiens, UniProt P32241); note: in other assays of this panel Not Active means under 50% inhibition at 10 µM
Sequence (P32241 whole entry): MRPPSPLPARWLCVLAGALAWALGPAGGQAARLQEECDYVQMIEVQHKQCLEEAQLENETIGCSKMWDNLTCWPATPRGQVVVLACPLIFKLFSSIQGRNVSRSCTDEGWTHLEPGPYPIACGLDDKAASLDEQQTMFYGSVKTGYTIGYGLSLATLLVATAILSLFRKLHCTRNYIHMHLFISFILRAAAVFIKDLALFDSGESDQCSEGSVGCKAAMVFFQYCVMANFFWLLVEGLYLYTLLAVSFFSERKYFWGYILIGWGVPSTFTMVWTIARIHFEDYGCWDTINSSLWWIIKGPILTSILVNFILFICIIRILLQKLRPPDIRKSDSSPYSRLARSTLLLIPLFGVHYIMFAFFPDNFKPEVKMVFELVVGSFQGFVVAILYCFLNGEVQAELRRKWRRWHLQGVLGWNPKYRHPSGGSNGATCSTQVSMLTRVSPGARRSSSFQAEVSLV
Type: cell membranes, Membrane
Conditions: ht-29

smiles	system.tested	IC50
CCC1(c2ccccc2)C(=O)NCNC1=O	Vasoactive intestinal polypeptide receptor 1 (Homo sapiens, UniProt P32241)	Not Active
CO[C@@H]1[C@@H](O[C@@H]2O[C@H](C)[C@@H](O[C@H]3C[C@@](C)(O)[C@@H](OC(=O)CC(C)C)[C@H](C)O3)[C@H](N(C)C)[C@H]2O)[C@@H](CC=O)C[C@@H](C)[C@@H](O)/C=C/C=C/C[C@@H](C)OC(=O)C[C@H]1O	Vasoactive intestinal polypeptide receptor 1 (Homo sapiens, UniProt P32241)	Not Active
CC(C)(C)NC(=O)[C@@H]1CN(Cc2cccnc2)CCN1C[C@@H](O)C[C@@H](Cc1ccccc1)C(=O)N[C@H]1c2ccccc2C[C@H]1O.O	Vasoactive intestinal polypeptide receptor 1 (Homo sapiens, UniProt P32241)	Not Active

###

Assign pIC50 to each entry below.
molecular target: Adenosine receptor A3 (Homo sapiens); assay type: cell membranes, CHO-K1, Membrane; conditions: cho-k1; read-out: IC50; note: in other assays of this panel Not Active means under 50% inhibition at 10 µM;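 note: radioligand binding assay with AB-MECA serving as the labeled ligand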
Sequence (P0DMS8 whole entry): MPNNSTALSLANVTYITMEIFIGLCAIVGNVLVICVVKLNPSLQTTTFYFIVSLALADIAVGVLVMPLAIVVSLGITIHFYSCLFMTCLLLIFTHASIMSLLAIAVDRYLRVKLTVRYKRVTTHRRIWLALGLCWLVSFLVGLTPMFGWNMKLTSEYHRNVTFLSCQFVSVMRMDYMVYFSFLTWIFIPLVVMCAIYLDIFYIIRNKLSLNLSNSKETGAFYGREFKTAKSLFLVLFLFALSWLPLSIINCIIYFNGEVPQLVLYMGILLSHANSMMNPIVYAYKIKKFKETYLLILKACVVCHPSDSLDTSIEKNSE
Note on pIC50: it is the negative log10 of concentration, concentration in mol/L.

Reported pIC50 ( "IVERMECTIN" ) = 6.29

Reported pIC50 ( GOLD SODIUM THIOMALATE ) = 5.83

Reported pIC50 ( "CISPLATIN" ) = 5.37

###

molecular target: Angiotensin-converting enzyme (Oryctolagus cuniculus, UniProt P12822); assay: biochemical; assay type: tissue-based, Lung;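 note: enzymatic inhibition of angiotensin-converting enzyme measured with FAPGG as the substrate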; note: in other assays of this panel Not Active means under 50% inhibition at 10 µM
Sequence (P12822 whole entry): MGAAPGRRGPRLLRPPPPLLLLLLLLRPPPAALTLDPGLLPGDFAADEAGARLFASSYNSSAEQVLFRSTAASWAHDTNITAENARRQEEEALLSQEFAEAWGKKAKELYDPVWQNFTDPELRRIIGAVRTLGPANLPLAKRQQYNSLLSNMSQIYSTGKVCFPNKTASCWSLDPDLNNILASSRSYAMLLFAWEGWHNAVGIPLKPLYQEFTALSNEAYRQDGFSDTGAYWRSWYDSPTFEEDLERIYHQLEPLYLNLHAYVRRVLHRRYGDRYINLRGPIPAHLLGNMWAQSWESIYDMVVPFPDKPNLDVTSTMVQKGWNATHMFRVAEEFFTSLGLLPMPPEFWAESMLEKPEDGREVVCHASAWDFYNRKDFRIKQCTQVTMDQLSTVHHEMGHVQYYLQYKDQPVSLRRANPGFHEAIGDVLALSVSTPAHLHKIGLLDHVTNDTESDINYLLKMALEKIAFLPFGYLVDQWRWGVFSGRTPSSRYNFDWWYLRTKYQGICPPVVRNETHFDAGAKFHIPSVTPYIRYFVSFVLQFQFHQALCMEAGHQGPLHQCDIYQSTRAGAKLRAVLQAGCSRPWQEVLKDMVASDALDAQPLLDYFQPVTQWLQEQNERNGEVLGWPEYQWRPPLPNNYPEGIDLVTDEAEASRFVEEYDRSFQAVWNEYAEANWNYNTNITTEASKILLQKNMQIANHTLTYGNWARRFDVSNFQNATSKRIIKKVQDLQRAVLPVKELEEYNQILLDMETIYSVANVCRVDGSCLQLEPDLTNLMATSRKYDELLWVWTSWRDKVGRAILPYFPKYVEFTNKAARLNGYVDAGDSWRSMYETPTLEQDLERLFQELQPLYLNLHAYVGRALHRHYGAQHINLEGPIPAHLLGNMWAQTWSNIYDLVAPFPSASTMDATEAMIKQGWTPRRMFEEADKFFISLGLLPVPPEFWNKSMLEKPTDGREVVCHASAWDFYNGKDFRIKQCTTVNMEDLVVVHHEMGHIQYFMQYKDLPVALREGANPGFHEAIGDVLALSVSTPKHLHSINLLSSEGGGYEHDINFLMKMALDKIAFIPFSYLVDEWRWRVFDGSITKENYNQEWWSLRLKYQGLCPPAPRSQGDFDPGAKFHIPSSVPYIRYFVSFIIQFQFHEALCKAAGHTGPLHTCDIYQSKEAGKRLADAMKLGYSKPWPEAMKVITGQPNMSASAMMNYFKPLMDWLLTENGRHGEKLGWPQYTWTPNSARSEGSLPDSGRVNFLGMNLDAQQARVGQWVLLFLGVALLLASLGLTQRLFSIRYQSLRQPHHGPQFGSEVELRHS

molecule	system.tested	IC50
CCC[C@@H]1C[C@@H](C(=O)N[C@@H]([C@H]2O[C@H](SC)[C@H](O)[C@@H](O)[C@H]2O)[C@@H](C)O)N(C)C1	Angiotensin-converting enzyme (Oryctolagus cuniculus, UniProt P12822)	Not Active
CN1C[C@H](C(=O)N[C@]2(C)O[C@@]3(O)[C@@H]4CCCN4C(=O)[C@H](Cc4ccccc4)N3C2=O)C=C2c3cccc4[nH]cc(c34)C[C@H]21	Angiotensin-converting enzyme (Oryctolagus cuniculus, UniProt P12822)	Not Active
CC(=O)OCC(=O)[C@@]1(OC(C)=O)[C@@H](C)C[C@H]2[C@@H]3C[C@H](F)C4=CC(=O)C=C[C@]4(C)[C@@]3(F)[C@@H](O)C[C@@]21C [DIFLORASONE DIACETATE]	Angiotensin-converting enzyme (Oryctolagus cuniculus, UniProt P12822)	Not Active

###

target: UniProtKB O76074; experiment: DRUGMATRIX: Phosphodiesterase PDE5 enzyme inhibition (substrate: [3H]cGMP + cGMP); format: tissue-based, Platelet; details: platelet; Not Active = under 50% inhibition at 10 µM
value.kind: IC50

Example entries and their recorded answers appear below.
molecule	IC50
CCCC[C@@H](CC)COC(=O)c1ccccc1C(=O)OC[C@@H](CC)CCCC [BIS(2-ETHYLHEXYL)PHTHALATE]	Not Active
CC(=O)[C@H]1CC[C@H]2[C@@H]3CCC4=CC(=O)CC[C@]4(C)[C@H]3CC[C@]12C	Not Active
CCOC(=O)c1ccc(N)cc1	Not Active
Oc1cccc2cccnc12	Not Active
NCC[C@H](O)C(=O)N[C@@H]1C[C@H](N)[C@@H](O[C@H]2O[C@H](CN)[C@@H](O)[C@H](O)[C@H]2O)[C@H](O)[C@H]1O[C@H]1O[C@H](CO)[C@@H](O)[C@H](N)[C@H]1O	Not Active
COc1c(C)c2c(c(O)c1C/C=C(\C)CCC(=O)OCCN1CCOCC1)C(=O)OC2 [MYCOPHENOLATE MOFETIL]	Not Active

Reported IC50 ( C=C1[C@@H]2CCC3[C@@](CC[C@@H]4[C@H](C(=O)O)C[C@@H](O[C@@H]5O[C@H](CO)[C@@H](OS(=O)(=O)[O-])[C@H](OS(=O)(=O)[O-])[C@H]5OC(=O)CC(C)C)C[C@@]34C)(C2)[C@@H]1O.[K+].[K+] (stereo partly drawn) [ATRACTYLOSIDE] ) = Not Active

Reported IC50 ( "CO[C@@H]1[C@@H](O[C@@H]2O[C@H](C)[C@@H](O[C@H]3C[C@@](C)(O)[C@@H](OC(=O)CC(C)C)[C@H](C)O3)[C@H](N(C)C)[C@H]2O)[C@@H](CC=O)C[C@@H](C)[C@@H](O)/C=C/C=C/C[C@@H](C)OC(=O)C[C@H]1O" ) = Not Active

Reported IC50 ( "CC(C)(C)NC(=O)[C@@H]1CN(Cc2cccnc2)CCN1C[C@@H](O)C[C@@H](Cc1ccccc1)C(=O)N[C@H]1c2ccccc2C[C@H]1O.O" ) = Not Active

Reported IC50 ( N=C(N)NCCCCNC(=N)N.O=S(=O)(O)O [ARCAINE SULFATE] ) = Not Active

Reported IC50 ( "CC(=O)[C@@]1(O)CC[C@H]2[C@@H]3C[C@H](C)C4=CC(=O)C=C[C@]4(C)[C@@]3(F)[C@@H](O)C[C@@]21C" ) = Not Active

Reported IC50 ( CC[N+](CC)(CC)CCOc1cccc(OCC[N+](CC)(CC)CC)c1OCC[N+](CC)(CC)CC.[I-].[I-].[I-] [GALLAMINE TRIETHIODIDE] ) = Not Active

Reported IC50 ( CCc1cccc2c3c([nH]c12)C(CC)(CC(=O)O)OCC3 (stereo not drawn) ) = Not Active

###

target: Adenosine receptor A2a (Homo sapiens); assay: DRUGMATRIX: Adenosine A2A radioligand binding (ligand: […]); assay type: cell membranes, HEK293, Membrane; details: hek293; Not Active = under 50% inhibition at 10 µM
Sequence (P29274 whole entry): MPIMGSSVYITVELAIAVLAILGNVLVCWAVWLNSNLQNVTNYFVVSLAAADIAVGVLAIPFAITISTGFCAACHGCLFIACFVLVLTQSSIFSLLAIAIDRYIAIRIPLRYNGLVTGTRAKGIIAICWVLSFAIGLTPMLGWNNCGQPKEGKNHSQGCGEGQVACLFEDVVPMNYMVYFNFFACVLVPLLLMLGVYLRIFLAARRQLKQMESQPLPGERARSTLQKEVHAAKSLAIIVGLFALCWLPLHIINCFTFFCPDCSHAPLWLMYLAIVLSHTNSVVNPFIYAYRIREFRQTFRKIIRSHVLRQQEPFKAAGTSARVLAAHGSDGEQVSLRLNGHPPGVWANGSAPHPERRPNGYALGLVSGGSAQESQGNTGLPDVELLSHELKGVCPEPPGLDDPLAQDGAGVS
value.kind: IC50

> print(dat)
                                     smiles                          system.tested  recorded.result
1  C[C@]12Cc3c[nH]nc3C[C@@H]1CC[C@@H]1[C@@H]2CC[C@@]2(C)[C@H]1CC[C@]2(C)O  Adenosine receptor A2a (Homo sapiens)       Not Active
2  CCC[C@@H]1C[C@@H](C(=O)N[C@@H]([C@H]2O[C@H](SC)[C@H](O)[C@@H](O)[C@H]2O)[C@@H](C)O)N(C)C1  Adenosine receptor A2a (Homo sapiens)       Not Active
3  CC(=O)S[C@@H]1CC2=CC(=O)CC[C@]2(C)[C@H]2CC[C@@]3(C)[C@@H](CC[C@@]34CCC(=O)O4)[C@H]12  Adenosine receptor A2a (Homo sapiens)       Not Active
4              C[C@](N)(Cc1ccc(O)cc1)C(=O)O  Adenosine receptor A2a (Homo sapiens)       Not Active

###

Assign pIC50 to each entry below.
biological target: Mitogen-activated protein kinase 14 (Homo sapiens, UniProt Q16539); set-up: species or system Escherichia coli; settings: read-out: IC50; note: in other assays of this panel Not Active means under 50% inhibition at 10 µM;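 note: inhibition of p38alpha enzyme activity in a biochemical kinase assay, with myelin basic protein serving as substrate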
Sequence (Q16539 whole entry): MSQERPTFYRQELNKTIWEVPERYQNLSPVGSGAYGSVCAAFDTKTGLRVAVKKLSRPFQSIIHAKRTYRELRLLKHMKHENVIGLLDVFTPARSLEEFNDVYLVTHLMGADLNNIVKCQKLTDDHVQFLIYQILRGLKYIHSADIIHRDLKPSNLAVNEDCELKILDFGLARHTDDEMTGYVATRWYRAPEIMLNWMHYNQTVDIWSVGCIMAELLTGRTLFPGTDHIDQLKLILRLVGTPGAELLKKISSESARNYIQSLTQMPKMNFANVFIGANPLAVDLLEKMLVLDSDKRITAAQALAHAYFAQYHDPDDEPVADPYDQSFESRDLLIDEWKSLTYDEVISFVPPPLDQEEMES
Note on pIC50: it is the negative log10 of concentration, concentration in mol/L.

Reported pIC50 ( "CC(C)(O)c1ccccc1CC[C@@H](SCC1(CC(=O)O)CC1)c1cccc(/C=C/c2ccc3ccc(Cl)cc3n2)c1" ) = 6.07

Reported pIC50 ( "CC1=C(/C=C/C(C)=C/C=C/C(C)=C\C(=O)O)C(C)(C)CCC1" ) = 5.60

Reported pIC50 ( "Oc1c(I)cc(I)c2cccnc12" ) = 6.44

Reported pIC50 ( "Oc1c(Cl)cc(Cl)cc1Sc1cc(Cl)cc(Cl)c1O" ) = 6.50

###

Biological target: Cytochrome P450 2A6 (Homo sapiens, UniProt P11509); note: in other assays of this panel Not Active means under 50% inhibition at 10 µM
Sequence (P11509 whole entry): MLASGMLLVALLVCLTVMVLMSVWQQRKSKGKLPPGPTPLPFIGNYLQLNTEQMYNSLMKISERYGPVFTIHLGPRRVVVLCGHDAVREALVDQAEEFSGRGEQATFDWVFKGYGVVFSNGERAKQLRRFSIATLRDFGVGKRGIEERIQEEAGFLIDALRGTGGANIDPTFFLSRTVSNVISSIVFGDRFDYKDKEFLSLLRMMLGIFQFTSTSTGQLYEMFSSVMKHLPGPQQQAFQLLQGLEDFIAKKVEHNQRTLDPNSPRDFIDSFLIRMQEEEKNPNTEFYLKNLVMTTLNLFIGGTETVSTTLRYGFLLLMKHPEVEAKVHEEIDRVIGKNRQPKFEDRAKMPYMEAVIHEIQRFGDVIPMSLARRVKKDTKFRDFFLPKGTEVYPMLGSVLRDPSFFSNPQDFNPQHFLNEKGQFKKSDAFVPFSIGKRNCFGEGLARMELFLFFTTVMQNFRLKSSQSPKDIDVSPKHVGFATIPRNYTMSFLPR
Conditions: bti-tn-5b1-4
value.kind: Ki

Example entries and their recorded answers appear below.
> print(dat)
     substance  recorded.result
1    CISPLATIN       Not Active
2  CARBOPLATIN       Not Active
3   IVERMECTIN       Not Active
4  OXALIPLATIN       Not Active

Reported Ki ( GOLD SODIUM THIOMALATE ) = Not Active
